Data provenance is the Human Domainome abundance scans (Beltran et al. 2025).

B1: MEF2-activating motif and SAP domain-containing transcriptional regulator, residues 170 to 204; numbered along this chain, Q6ZN01 (parent)
chain: LKLEELTVSELRQQLRLRGLPVSGTKSMLLERMRG

- Variants of: B1
- Test Details: abundance fitness (aPCA) (normalised: wild type 0, dead -1); higher = more abundant; growth selection in yeast, the domain comes from the species named
- Condition Label: Homo sapiens
Entries are grouped by abundance fitness into these classes: low end (below -0.5), middle (-0.5 to below -0.2), high end (-0.2 or more)

Use the examples below as a reference point.
Sequence	Assigned Label
LKLEELTVSELRQQLRLRGLPVSGTKSMLLERQRG	high end
LKLEELTVSILRQQLRLRGLPVSGTKSMLLERMRG	low end

Now look at this entry.
Which class does "LKLEELTVSELRQGLRLRGLPVSGTKSMLLERMRG" fall in?
middle
